pIC50: −log10 of the molar value.
Record type: pIC50 measurement. Applies to: UniProt P22413
Sequence (P22413 98-925): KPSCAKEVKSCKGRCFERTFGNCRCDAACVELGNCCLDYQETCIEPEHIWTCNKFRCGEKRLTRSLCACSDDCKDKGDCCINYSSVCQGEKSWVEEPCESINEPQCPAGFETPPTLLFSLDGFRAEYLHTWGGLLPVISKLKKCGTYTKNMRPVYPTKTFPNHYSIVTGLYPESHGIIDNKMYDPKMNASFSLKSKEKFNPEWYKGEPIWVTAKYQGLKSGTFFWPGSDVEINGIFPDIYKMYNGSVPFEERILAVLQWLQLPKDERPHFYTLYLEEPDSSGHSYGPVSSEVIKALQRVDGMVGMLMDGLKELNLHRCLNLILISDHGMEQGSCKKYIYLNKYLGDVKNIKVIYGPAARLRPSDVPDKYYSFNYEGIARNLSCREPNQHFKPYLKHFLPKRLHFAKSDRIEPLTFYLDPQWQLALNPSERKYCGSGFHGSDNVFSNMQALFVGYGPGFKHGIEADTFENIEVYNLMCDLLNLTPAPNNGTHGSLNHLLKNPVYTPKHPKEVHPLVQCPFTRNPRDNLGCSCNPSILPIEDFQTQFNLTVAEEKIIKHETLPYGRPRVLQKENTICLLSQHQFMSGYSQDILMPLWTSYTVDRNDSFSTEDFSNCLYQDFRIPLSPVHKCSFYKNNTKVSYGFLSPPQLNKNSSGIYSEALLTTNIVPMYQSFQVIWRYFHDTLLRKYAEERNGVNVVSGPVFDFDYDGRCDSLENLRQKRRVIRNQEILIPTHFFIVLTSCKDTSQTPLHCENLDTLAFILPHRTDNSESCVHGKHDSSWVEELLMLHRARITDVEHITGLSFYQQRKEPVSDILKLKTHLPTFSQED

{"columns": ["molecule", "pIC50"],
 "data": [
  ["CCOc1ccc2c(Oc3ccc(CC(=O)NO)cc3)ccnc2c1 [Compound 98]", 6.90],
  ["CONC(=O)C(C)(C)c1ccc(Oc2ccnc3cc(OC)c(OC)cc23)cc1 [Example A-2, reference compound]", 5.48],
  ["COc1ccc2c(Nc3ncc(CC(=O)NO)cn3)ccnc2n1 [Compound 151]", 7.15],
  ["COc1ccc2c(C(C)c3ccc(C(C)(C)C(=O)NO)cc3)ccnc2n1 (centres unmarked) [Compound 113]", 6.66],
  ["CCn1ncc2c(Nc3ccc(CC(=O)NO)c(OC)c3)ccnc21 [Compound 56]", 8.64]
]}
